tested on: T-47D breast; experiment: NCI tumour cell line growth inhibition, 48 h
*1 amine or outer side, *2 acyl side, *3 side chain or, on linkers, in order; H or OH if unused. Where a SMILES comes first, the peptide text is derived from it. [ ]: non-standard residue; d: D form. X33 = C=CCC(O[*:1])C(=O)[*:2]; NMeV = CN[CH](C(=O)O)C(C)C; NMeA = CN[CH](C)C(=O)O; βAla = NCCC(=O)O
OUTCOME MEASURE: TGI

Form field TGI, entry C[n+]1cccc2ccc(OC(=O)c3ccccc3)cc21 : > 100 µM

Form field TGI, entry NC(=O)NC(=O)c1cccc(NC(=O)CF)c1 : > 100 µM

Form field TGI, entry CN(C)CCn1c(=O)c2ccc3c4c(nn3CCN(C)C)c3cc(O)ccc3n(c1=O)c24 : > 39.2 µM

Form field TGI, entry COc1cccc(C2SCC(=O)N2c2ccc(-n3c(-c4ccccc4)nc4ccccc4c3=O)cc2)c1OC (centres undefined) : > 100 µM

Form field TGI, entry NC(CCC(=O)O)(CCC(=O)O)CCC(=O)O : > 100 µM

Form field TGI, entry CCCCNC(=O)NS(=O)(=O)c1ccc(N2N=C(c3cc(C)ccc3C)CC2c2cc(OC)c(OC)c(OC)c2)cc1 (centres undefined) : 18.4 µM

Form field TGI, entry CC(C)(C)[Si](C)(C)OCCOCn1cc(F)c(=O)[nH]c1=O : > 100 µM

Form field TGI, entry COCCNc1cc(NC(=O)N2CCCc3cc(CN4CCN(C)CC4=O)c(C=O)nc32)ncc1C#N : > 50 µM

Form field TGI, entry CCOC(=O)c1nc(Nc2ccc(Cl)cc2)c2ccccc2n1 : 22.5 µM

Form field TGI, entry O=C1CCCCC/C1=C\c1ccc(Cl)cc1 : > 100 µM

Form field TGI, entry FC(F)(F)c1ccc(-c2cnc(Cl)nc2NCc2cc(C(F)(F)F)cc(C(F)(F)F)c2)cc1 : > 100 µM

Form field TGI, entry C/C=C/[C@@H]1OC(=O)C2=C[C@@H](O)[C@@H](/C=C/C)O[C@H]21 : 13 µM

Form field TGI, entry COc1cc2c(cc1OC)C(C)N(C)c1c-2c(OC(C)=O)cc2cc(OC)c(OC)cc12 (centres undefined) : 24.1 µM

Form field TGI, entry C=CCC1OC(=O)CCNC(=O)C(C)N(C)C(=O)C(C(C)C)N(C)C(=O)C(C(C)CC)NC(=O)C2CCCN2C1=O (centres undefined) (cyclo([X33]PI[NMeV][NMeA][βAla]); configuration not given here) : > 100 µM

Form field TGI, entry O=C1[C@@H]2C[C@@H](O)CN2C(=O)c2ccccc2N1CCCO : > 100 µM

Form field TGI, entry c1ccc(P(CCP(CCP(c2ccccc2)c2ccccc2)c2ccccc2)CCP(c2ccccc2)c2ccccc2)cc1 (centres undefined) : 4.79 µM

Form field TGI, entry CC(C)N1C(NNC(=O)c2cnccn2)=NS(=O)(=O)c2ccccc21 : > 100 µM

Form field TGI, entry CCOc1ccccc1/C=N\N=C(\N)N/N=C/c1ccccc1OCC : > 100 µM

Form field TGI, entry O=C(Cc1ccccc1)NCCCN(CCCCN(CCCNC(=O)Cc1ccccc1)C(=O)OCc1ccccc1)C(=O)OCc1ccccc1 : > 100 µM

----------
tested on: SK-MEL-28 melanoma; test: NCI tumour cell line growth inhibition, 48 h; in the data active means GI50 below about 0.43 µM; inactive means the rest
One label from this list, please: 1 for active, -1 for inactive

IN: Please share the test call associated with Nc1ccc(-c2ccc(N)cc2I)c(I)c1 .
OUT: -1

IN: Please share the test call associated with CCOc1ccccc1/C=N\N=C(\N)N/N=C/c1ccccc1OCC .
OUT: -1

IN: Please share the test call associated with Nc1nc(N)c(N=O)c(OCC2CCCCC2)n1 .
OUT: -1

IN: Please share the test call associated with O=C(c1cccnc1)c1cc(-c2ccccn2)c(=O)n2ccccc12 .
OUT: -1

IN: Please share the test call associated with CCCc1cc(=O)n2c(C(=O)Nc3ccccc3OC)c(C(=O)Nc3ccc(F)cc3)sc2n1 .
OUT: -1

IN: Please share the test call associated with C/C=C/[C@@H]1OC(=O)C2=C[C@@H](O)[C@@H](/C=C/C)O[C@H]21 .
OUT: -1

IN: Please share the test call associated with CC(C)N1C(NNC(=O)c2cnccn2)=NS(=O)(=O)c2ccccc21 .
OUT: -1

IN: Please share the test call associated with Cc1cn2c(/C=N/Nc3ccccn3)c(-c3ccc(Cl)c([N+](=O)[O-])c3)nc2s1 .
OUT: -1

IN: Please share the test call associated with CN(C)c1ccc(C(=C2C=CC(=[N+](C)C)C=C2)c2ccc(N(C)C)cc2)cc1 .
OUT: 1

IN: Please share the test call associated with CSc1ccccc1C#Cc1ccccc1C#CCCCCO .
OUT: -1

----------
tested on: RPMI-8226 leukemia; test: NCI tumour cell line growth inhibition, 48 h
Record form. Attribute: GI50. Fill in for each entry.

Result for CN(C)CC1CCCCCC(CN(C)C)C1=O (stereo not drawn) , tested on RPMI-8226 leukemia, GI50: 3.15 µM

Result for O=C(CN1CCN(c2ccccc2)CC1)N1CCN(c2nnc(-c3ccc(Cl)cc3)c(-c3ccc(Cl)cc3)n2)CC1 , tested on RPMI-8226 leukemia, GI50: 3.88 µM

Result for Cn1ccnc1C(=O)/C=C/c1ccc(CC(=O)Nc2ccc(C(F)(F)F)cc2)cc1 , tested on RPMI-8226 leukemia, GI50: 0.869 µM

----------
tested on: OVCAR-5 ovarian; test: NCI tumour cell line growth inhibition, 48 h
OUTCOME MEASURE: TGI

Form field TGI, entry COc1cc(/C=C2\C(=O)N(Cc3ccccc3)C(c3ccccc3)S2(=O)=O)cc(OC)c1OC (stereo not given) : > 100 µM

Form field TGI, entry Cc1ccc(S(=O)(=O)NNC2(NS(=O)(=O)c3ccc(Cl)cc3)C(Cl)=C(Cl)C(=O)c3ccccc32)cc1 (stereo not given) : 33.4 µM

Form field TGI, entry Nc1ccc(-c2ccc(N)cc2I)c(I)c1 : 54.8 µM

Form field TGI, entry O=C(NCCc1ccccc1)c1c(O)c2ccccc2[nH]c1=O : > 100 µM

Form field TGI, entry C/C(=N\NC(=S)Nc1ccc(C)cc1)c1nc2ncccc2[nH]1 : 18.6 µM

Form field TGI, entry C=C1C(=O)O[C@H]2[C@H]3O[C@@H](C[C@@H]12)[C@@]1(C)CC[C@H](O1)C(C)=CCC[C@H]3C : 11.5 µM

Form field TGI, entry CCOC(=O)Nc1nn(C)c(=NCc2ccccc2)s1 : > 100 µM

Form field TGI, entry CC1(C)OC(=O)C2(O1)C(=O)C1CCCCC12 (stereo not given) : > 100 µM

Form field TGI, entry CN(C)CCn1c(=O)c2ccc3c4c(nn3CCN(C)C)c3cc(O)ccc3n(c1=O)c24 : 1.26 µM

Form field TGI, entry CCOc1ncn(-c2ccc(NC(=S)NC34CC5CC(CC(C5)C3)C4)cc2)n1 : > 100 µM

----------
tested on: MDA-MB-231 breast; experiment: NCI tumour cell line growth inhibition, 48 h
Record form. Attribute: TGI. Fill in for each entry.

Form field TGI, entry O=C(CNC(=O)OCc1ccccc1)NCCCCC(NC(=O)OCc1ccccc1)C(=O)NC(CCCCNC(=O)CNC(=O)OCc1ccccc1)C(=O)OCc1ccccc1 (stereo not drawn) : > 62.5 µM

Form field TGI, entry NC(CCCCNC(=O)CNC(=O)OCc1ccccc1)C(=O)NC(CCCCNC(=O)CNC(=O)OCc1ccccc1)C(=O)NC(CCCCNC(=O)CNC(=O)OCc1ccccc1)C(=O)NC(CCCCNC(=O)CNC(=O)OCc1ccccc1)C(=O)NC(CCCCNC(=O)CNC(=O)OCc1ccccc1)C(=O)NC(CCCCNC(=O)CNC(=O)OCc1ccccc1)C(=O)O (stereo not drawn) : > 75 µM

Form field TGI, entry COc1ccc2c(c1)C(C)Cc1c(Cl)nc(C)nc1N2C (stereo not drawn) : 34.9 µM

Form field TGI, entry COc1ccc(-c2c3c(nc4nc(SC)nc(SC)c24)CCCC3)cc1OC : > 100 µM

Form field TGI, entry c1ccc(C2OCC(OC3CCCCO3)CO2)cc1 (stereo not drawn) : > 100 µM

Form field TGI, entry CN(C)CC1CCCCCC(CN(C)C)C1=O (stereo not drawn) : 23.8 µM

Form field TGI, entry O=c1oc(-c2ccccc2)c(-c2ccccc2)n1-c1ccc(Br)cc1 : > 100 µM

Form field TGI, entry O=C(/C=C/c1ccc(Cl)cc1)c1cccs1 : 39.9 µM

----------
tested on: OVCAR-5 ovarian; assay: NCI tumour cell line growth inhibition, 48 h
Record form. Attribute: TGI. Fill in for each entry.

Form field TGI, entry Cc1ccc(Sc2ccc(C)cc2[N+](=O)[O-])c([N+](=O)[O-])c1 : > 100 µM

Form field TGI, entry CC(C)C12C=CC(C)(CC1)n1c(=O)c3cc4ccccc4cc3c(=O)n12 (stereo not given) : > 100 µM

Form field TGI, entry O=C(c1cccnc1)c1cc(-c2ccccn2)c(=O)n2ccccc12 : > 100 µM

Form field TGI, entry CCCCNC(=O)NS(=O)(=O)c1ccc(N2N=C(c3cc(C)ccc3C)CC2c2cc(OC)c(OC)c(OC)c2)cc1 (stereo not given) : 11.9 µM

Form field TGI, entry CS/C(=N\c1nccs1)NC(=O)c1cccc(Cl)c1 : > 100 µM
